Where do these numbers come from? They come from the RNAGym collection of RNA variant scans (doi:10.7554/elife.90254).

B1: OR4K15 (parent)
chain: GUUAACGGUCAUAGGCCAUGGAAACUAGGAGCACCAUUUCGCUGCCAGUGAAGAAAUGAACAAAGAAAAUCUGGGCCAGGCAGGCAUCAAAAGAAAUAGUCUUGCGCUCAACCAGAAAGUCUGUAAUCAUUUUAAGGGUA

variants of: B1; assay: self-cleavage, relative activity (ratio to wild type); higher = more cleavage; in vitro, sequencing; the parent is a self-cleaving ribozyme
observationType: self-cleavage

• U26G A96G = 1.78
• A86U U124A = 1.02
• A86G G104A = 0.02
• G21A A90G = 0.38
• A24G A56C = 1.02
• G7A U72C = 0.27
• U38C A92G = 1.97
• A67C A125G = 0.85
• U108C = 0.01
• A66U A135U = 0.74
• A51G A89U = 1.41
• U9G A54G = 1.44
• A33G U103C = 0.4
• G44U = 1.91
• A64G U100A = 0.51
• C32U U124A = 0.41
• G50A U133C = 1.88
• A23U U26C = 1.23
• A59G U120A = 1.23
• A59G A94G = 0.79
• G31A A86U = 0.91
• U19G A140G = 1.51
